Reference source for all entries: ChEMBL document CHEMBL3774318

- experiment: Cytotoxicity against human HL60 cells assessed as cell growth inhibition after 72 hrs by MTT assay
- Assay type: functional, cell-based
- experimental.parameters: HL-60, 72 h
recorded.metric: IC50

smiles.entry	recorded.metric	recorded.result
COc1cccc2c1C(=O)c1c(O)c3c(c(O)c1C2=O)C[C@@](O)(C(=O)CO)C[C@@H]3O[C@H]1C[C@H](N)[C@H](O)[C@H](C)O1	IC50	0.92 µM

---

- experiment: Cytotoxicity against human Jurkat T cells assessed as cell growth inhibition after 72 hrs by MTT assay
- Format: functional, cell-based

molecule	IC50 / nM
COc1cccc2c1C(=O)c1c(O)c3c(c(O)c1C2=O)C[C@@](O)(C(=O)CO)C[C@@H]3O[C@H]1C[C@H](N)[C@H](O)[C@H](C)O1 [DOXORUBICIN]	30
